Measured % of control metabolism (SD, n = 3), 7-HFC glucuronidation, listed per entry for reference.
Test system: UGT enzymes of human liver microsomes
assay.method.text: Inhibition of 7-HFC glucuronidation in human liver microsomes
Assay type: biochemical
test.context: inhibitor 1000 μM; 7-HFC 50 μM, human liver microsomes 100 μg/ml, 15 min

Reference set (3 entries):
> print(dat)
                                   compound    result
1           CC(C)[C@@H]1CC[C@@H](C)C[C@H]1O  72 (1) %
2  CC(=O)OC1CC(C)CCC1C(C)C (single isomer, unassigned; (-)) [(−)-Menthyl acetate]  32 (1) %
3                           O=C(O)c1ccccc1O  47 (1) %

INPUT: Requested field: % of control metabolism (SD, n = 3), 7-HFC glucuronidation. Item: CCCOC(=O)c1cc(O)c(O)c(O)c1 [Propyl gallate]
OUTPUT: 46 (1) %

Attribution: patent US20030215462A1
